Biological target: Cholinesterase (Homo sapiens)
Sequence (P06276 whole entry): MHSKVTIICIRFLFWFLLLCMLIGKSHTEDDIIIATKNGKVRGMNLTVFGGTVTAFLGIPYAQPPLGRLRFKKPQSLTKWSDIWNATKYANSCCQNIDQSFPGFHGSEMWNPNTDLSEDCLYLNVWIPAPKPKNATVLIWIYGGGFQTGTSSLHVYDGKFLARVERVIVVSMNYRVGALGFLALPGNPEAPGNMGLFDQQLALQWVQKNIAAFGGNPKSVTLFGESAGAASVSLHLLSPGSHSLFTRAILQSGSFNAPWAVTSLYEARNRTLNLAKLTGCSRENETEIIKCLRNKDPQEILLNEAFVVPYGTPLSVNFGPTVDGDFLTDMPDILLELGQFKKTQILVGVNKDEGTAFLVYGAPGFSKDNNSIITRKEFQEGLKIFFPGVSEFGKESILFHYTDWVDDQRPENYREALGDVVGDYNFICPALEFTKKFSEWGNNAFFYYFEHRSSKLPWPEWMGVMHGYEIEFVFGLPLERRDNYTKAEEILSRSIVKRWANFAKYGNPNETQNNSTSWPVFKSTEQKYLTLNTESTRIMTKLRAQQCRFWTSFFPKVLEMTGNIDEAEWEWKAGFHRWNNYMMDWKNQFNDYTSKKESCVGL
Heads up, the class ranges for IC50 are low-valued (below 0.01 µM), mid-valued (0.01 µM to below 0.06 µM), high-valued (0.06 µM or more)

The examples below pair each entry with its known result.
smiles.notation	discrete.label
CN(CCCNC(=O)CCc1c[nH]c2ccccc12)CCCNc1c2c(nc3cc(Cl)ccc13)CCCC2	mid-valued
O=C(CCc1c[nH]c2ccccc12)NCCCCCCCCCc1c2c(nc3cc(Cl)ccc13)CCCC2	low-valued
N#Cc1ccc2[nH]cc(CCC(=O)NCCCCCCNc3c4c(nc5cc(Cl)ccc35)CCCC4)c2c1	mid-valued

# bin lookup: classify Cn1cc(C(=O)NCCCCCCCNc2c3c(nc4cc(Cl)ccc24)CCCC3)c2ccccc21 by its IC50
high-valued

# bin lookup: classify O=C(CCc1c[nH]c2ccccc12)NCCCCCNc1c2c(nc3cc(Cl)ccc13)CCCC2 by its IC50
mid-valued

# bin lookup: classify O=C(Cc1c[nH]c2ccccc12)NCCCCCCCNc1c2c(nc3cc(Cl)ccc13)CCCC2 by its IC50
mid-valued

# bin lookup: classify O=C(CCc1c[nH]c2ccccc12)NCCCCCCCCCCNc1c2c(nc3ccccc13)CCCC2 by its IC50
mid-valued

# bin lookup: classify O=C(CCOc1c[nH]c2ccccc12)NCCCCCNc1c2c(nc3cc(Cl)ccc13)CCCC2 by its IC50
high-valued

# bin lookup: classify O=C(CCCc1c[nH]c2ccccc12)NCCCCCNc1c2c(nc3cc(Cl)ccc13)CCCC2 by its IC50
low-valued

# bin lookup: classify O=C(/C=C/c1c[nH]c2ccccc12)NCCCCCCNc1c2c(nc3cc(Cl)ccc13)CCCC2 by its IC50
high-valued

###

Let's go through some recorded pKi values for Acetylcholinesterase (Homo sapiens, UniProt P22303) together.
Numbers only, as −log10 of the molar value.

smiles.notation	assay.readout	val
O=C(Cc1c[nH]c2ccc(Br)cc12)NCCCCCCCNc1c2c(nc3cc(Cl)ccc13)CCCC2	pKi	10.70
O=C(Cc1c[nH]c2ccccc12)NCCCCCCCNc1c2c(nc3cc(Cl)ccc13)CCCC2	pKi	10.82
O=C(CCc1c[nH]c2ccccc12)NCCCCCCCNc1c2c(nc3cc(Cl)ccc13)CCCC2	pKi	11.05
O=C(CCCc1c[nH]c2ccccc12)NCCCCCNc1c2c(nc3cc(Cl)ccc13)CCCC2	pKi	11.77

Please turn your attention to the following entry.
Summary for this compound, O=C(CCc1c[nH]c2ccccc12)NCCCCCCNc1c2c(nc3cc(Cl)ccc13)CCCC2 : pKi is 10.85

###

Target: Acetylcholinesterase (Homo sapiens, UniProt P22303)
Sequence (P22303 whole entry): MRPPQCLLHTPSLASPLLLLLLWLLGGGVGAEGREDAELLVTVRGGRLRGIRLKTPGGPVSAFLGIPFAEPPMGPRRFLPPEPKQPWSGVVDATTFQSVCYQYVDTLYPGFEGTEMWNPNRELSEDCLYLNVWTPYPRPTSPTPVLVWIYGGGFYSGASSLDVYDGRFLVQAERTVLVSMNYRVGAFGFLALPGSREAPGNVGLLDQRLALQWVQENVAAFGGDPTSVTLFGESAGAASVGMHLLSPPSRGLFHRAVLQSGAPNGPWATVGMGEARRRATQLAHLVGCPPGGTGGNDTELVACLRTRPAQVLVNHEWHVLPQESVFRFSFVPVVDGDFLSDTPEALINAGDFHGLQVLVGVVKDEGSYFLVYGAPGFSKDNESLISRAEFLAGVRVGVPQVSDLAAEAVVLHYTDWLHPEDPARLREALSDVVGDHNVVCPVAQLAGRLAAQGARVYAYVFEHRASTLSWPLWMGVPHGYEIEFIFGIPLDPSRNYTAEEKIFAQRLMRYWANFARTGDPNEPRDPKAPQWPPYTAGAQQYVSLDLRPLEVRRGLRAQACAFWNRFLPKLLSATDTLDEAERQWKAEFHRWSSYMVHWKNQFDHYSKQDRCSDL
Provide the reported pIC50 of each item.
Numbers only, as −log10 of the molar value.

smiles.notation	assay.system	assay.readout	val
O=C(CCc1c[nH]c2ccccc12)NCCCCCCCNc1c2c(nc3cc(Cl)ccc13)CCCC2	Acetylcholinesterase (Homo sapiens, UniProt P22303)	pIC50	5.22
O=C(Cc1c[nH]c2ccccc12)NCCCCCCCNc1c2c(nc3cc(Cl)ccc13)CCCC2	Acetylcholinesterase (Homo sapiens, UniProt P22303)	pIC50	5.15
O=C(CCc1c[nH]c2ccccc12)NCCCCCCNc1c2c(nc3cc(Cl)ccc13)CCCC2	Acetylcholinesterase (Homo sapiens, UniProt P22303)	pIC50	5.70
O=C(CCCc1c[nH]c2ccccc12)NCCCCCNc1c2c(nc3cc(Cl)ccc13)CCCC2	Acetylcholinesterase (Homo sapiens, UniProt P22303)	pIC50	5.70

Summary for this molecule, O=C(Cc1c[nH]c2ccc(Br)cc12)NCCCCCCCNc1c2c(nc3cc(Cl)ccc13)CCCC2 : pIC50 is 4.82
